Catalogue of log k values
assay: lipophilicity by isocratic RP-HPLC (log k, k, log kw, S); assay type: physicochemical; conditions: mobile phase MeOH/water 80:20 (v/v)
MEASURED PARAMETER: log k

{"COMPOUND": "CCCCCCOc1ccccc1NC(=O)OC(CN(CCC)CCC)CN1CCCC1 (stereo not shown)", "MEASURED PARAMETER": "log k", "VALUE OBSERVED": 1.0206}
{"COMPOUND": "CCCCCOc1ccccc1NC(=O)OC(CN(CCC)CCC)CN1CCCC1 (stereo not shown)", "MEASURED PARAMETER": "log k", "VALUE OBSERVED": 0.8254}
{"COMPOUND": "CCCCCCCOc1cccc(NC(=O)OC(CN(CCC)CCC)CN2CCCC2)c1.Cl.Cl (stereo not shown)", "MEASURED PARAMETER": "log k", "VALUE OBSERVED": 0.9521}
{"COMPOUND": "CCCCOc1ccccc1NC(=O)OC(CN(CCC)CCC)CN1CCCC1 (stereo not shown)", "MEASURED PARAMETER": "log k", "VALUE OBSERVED": 0.7165}
{"COMPOUND": "CCCCOc1cccc(NC(=O)OC(CN(CCC)CCC)CN2CCCC2)c1 (stereo not shown)", "MEASURED PARAMETER": "log k", "VALUE OBSERVED": 0.5584}
{"COMPOUND": "CCCCCOc1cccc(NC(=O)OC(CN(CCC)CCC)CN2CCCC2)c1.Cl.Cl (stereo not shown)", "MEASURED PARAMETER": "log k", "VALUE OBSERVED": 0.6574}
{"COMPOUND": "CCCCCCCOc1cccc(NC(=O)OC(CN(CCC)CCC)CN2CCCCCC2)c1.O=C(O)C(=O)O (stereo not shown)", "MEASURED PARAMETER": "log k", "VALUE OBSERVED": 1.4831}
{"COMPOUND": "CCCCCCOc1cccc(NC(=O)OC(CN(CCC)CCC)CN2CCCCCC2)c1.Cl.Cl (stereo not shown)", "MEASURED PARAMETER": "log k", "VALUE OBSERVED": 1.0807}
{"COMPOUND": "CCCCCOc1cccc(NC(=O)OC(CN(CCC)CCC)CN2CCCCCC2)c1.Cl.Cl (stereo not shown)", "MEASURED PARAMETER": "log k", "VALUE OBSERVED": 0.9502}
{"COMPOUND": "CCCCOc1cccc(NC(=O)OC(CN(CCC)CCC)CN2CCCCCC2)c1 (stereo not shown)", "MEASURED PARAMETER": "log k", "VALUE OBSERVED": 0.7805}
{"COMPOUND": "CCCCCCOc1cccc(NC(=O)OC(CN(CCC)CCC)CN2CCCC2)c1 (stereo not shown)", "MEASURED PARAMETER": "log k", "VALUE OBSERVED": 0.8254}
{"COMPOUND": "CCCCOc1ccccc1NC(=O)OC(CN(CCC)CCC)CN1CCCCCC1 (stereo not shown)", "MEASURED PARAMETER": "log k", "VALUE OBSERVED": 0.9881}
{"COMPOUND": "CCCCCCCOc1cccc(NC(=O)OC(CN(CCC)CCC)CN2CCCCCC2)c1.Cl.Cl (stereo not shown)", "MEASURED PARAMETER": "log k", "VALUE OBSERVED": 1.1484}
{"COMPOUND": "CCCCCCCOc1ccccc1NC(=O)OC(CN(CCC)CCC)CN1CCCC1.Cl.Cl (stereo not shown)", "MEASURED PARAMETER": "log k", "VALUE OBSERVED": 1.1092}
{"COMPOUND": "CCCCCCOc1ccccc1NC(=O)OC(CN(CCC)CCC)CN1CCCCCC1 (stereo not shown)", "MEASURED PARAMETER": "log k", "VALUE OBSERVED": 1.3023}
{"COMPOUND": "CCCCCOc1ccccc1NC(=O)OC(CN(CCC)CCC)CN1CCCCCC1.O=C(O)C(=O)O (stereo not shown)", "MEASURED PARAMETER": "log k", "VALUE OBSERVED": 1.0863}

Numbers sourced from paper PMC6222509.
